biological target: UniProtKB O60674
Sequence (O60674 whole entry): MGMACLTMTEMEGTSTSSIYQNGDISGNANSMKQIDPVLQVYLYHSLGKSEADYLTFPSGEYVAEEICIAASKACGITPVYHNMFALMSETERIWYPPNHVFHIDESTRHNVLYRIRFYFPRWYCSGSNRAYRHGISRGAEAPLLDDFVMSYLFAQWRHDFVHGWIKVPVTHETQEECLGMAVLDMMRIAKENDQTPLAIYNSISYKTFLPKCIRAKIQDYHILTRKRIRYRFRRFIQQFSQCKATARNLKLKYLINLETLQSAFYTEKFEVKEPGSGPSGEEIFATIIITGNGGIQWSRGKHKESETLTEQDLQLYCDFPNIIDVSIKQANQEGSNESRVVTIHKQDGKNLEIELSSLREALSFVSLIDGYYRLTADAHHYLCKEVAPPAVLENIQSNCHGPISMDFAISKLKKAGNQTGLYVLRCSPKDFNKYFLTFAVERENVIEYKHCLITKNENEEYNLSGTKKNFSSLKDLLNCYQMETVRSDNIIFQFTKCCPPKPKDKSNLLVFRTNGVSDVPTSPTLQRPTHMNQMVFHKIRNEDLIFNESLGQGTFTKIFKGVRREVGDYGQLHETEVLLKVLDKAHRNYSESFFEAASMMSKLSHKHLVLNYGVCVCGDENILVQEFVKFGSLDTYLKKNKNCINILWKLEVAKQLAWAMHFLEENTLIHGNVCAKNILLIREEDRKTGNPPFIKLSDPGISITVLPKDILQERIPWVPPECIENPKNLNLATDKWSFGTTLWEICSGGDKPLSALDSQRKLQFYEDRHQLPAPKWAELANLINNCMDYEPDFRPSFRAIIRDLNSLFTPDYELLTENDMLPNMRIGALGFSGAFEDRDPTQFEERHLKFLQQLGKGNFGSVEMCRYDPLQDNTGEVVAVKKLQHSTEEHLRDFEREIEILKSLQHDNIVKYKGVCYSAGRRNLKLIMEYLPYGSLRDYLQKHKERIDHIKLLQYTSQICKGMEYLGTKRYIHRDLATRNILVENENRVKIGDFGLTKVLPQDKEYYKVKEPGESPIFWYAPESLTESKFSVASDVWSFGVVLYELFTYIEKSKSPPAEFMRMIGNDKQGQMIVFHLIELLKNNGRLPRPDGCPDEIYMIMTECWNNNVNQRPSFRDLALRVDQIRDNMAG
pIC50: −log10 of the molar value.
PROPERTY MEASURED: pIC50

### Prompt Please state recorded pIC50 (tested on UniProtKB O60674) of CCC(CC)Cn1ccc2cnc(Nc3cnn(CC(=O)O[C@@H]4C[C@@H](C(=O)OC)N(C)C4)c3)nc21
### Response > 7.00

---

molecular target: Non-receptor tyrosine-protein kinase TYK2 (Homo sapiens, UniProt P29597)
Sequence (P29597 whole entry): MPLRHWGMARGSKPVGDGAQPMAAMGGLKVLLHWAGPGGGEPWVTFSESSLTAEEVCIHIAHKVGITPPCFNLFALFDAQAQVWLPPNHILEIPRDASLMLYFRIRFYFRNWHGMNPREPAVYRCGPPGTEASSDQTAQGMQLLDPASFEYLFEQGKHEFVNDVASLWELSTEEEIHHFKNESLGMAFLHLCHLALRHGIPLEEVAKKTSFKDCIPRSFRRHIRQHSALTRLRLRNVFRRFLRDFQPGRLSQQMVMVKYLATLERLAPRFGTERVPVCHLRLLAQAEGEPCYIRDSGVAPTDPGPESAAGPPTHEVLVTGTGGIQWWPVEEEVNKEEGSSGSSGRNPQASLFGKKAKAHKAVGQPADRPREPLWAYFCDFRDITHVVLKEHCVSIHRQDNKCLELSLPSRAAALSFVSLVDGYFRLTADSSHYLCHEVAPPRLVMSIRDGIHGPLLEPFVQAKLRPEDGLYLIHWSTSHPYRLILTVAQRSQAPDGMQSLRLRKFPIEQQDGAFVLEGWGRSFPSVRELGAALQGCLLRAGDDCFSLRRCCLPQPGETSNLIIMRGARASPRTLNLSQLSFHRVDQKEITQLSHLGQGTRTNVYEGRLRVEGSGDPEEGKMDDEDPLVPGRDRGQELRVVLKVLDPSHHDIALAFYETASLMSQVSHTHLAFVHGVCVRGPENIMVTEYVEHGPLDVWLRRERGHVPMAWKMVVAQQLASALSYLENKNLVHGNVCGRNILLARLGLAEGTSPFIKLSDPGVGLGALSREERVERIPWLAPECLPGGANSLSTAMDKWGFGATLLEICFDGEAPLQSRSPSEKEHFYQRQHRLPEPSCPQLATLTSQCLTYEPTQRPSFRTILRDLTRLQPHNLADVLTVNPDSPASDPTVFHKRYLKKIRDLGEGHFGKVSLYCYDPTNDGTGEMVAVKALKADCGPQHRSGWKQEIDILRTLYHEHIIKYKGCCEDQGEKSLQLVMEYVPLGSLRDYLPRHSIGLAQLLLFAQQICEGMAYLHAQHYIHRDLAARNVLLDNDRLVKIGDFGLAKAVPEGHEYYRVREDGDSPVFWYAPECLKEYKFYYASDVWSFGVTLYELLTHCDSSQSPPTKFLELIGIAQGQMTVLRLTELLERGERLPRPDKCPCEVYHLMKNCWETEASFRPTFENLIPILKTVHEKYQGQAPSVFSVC
pIC50: −log10 of the molar value.
PROPERTY MEASURED: pIC50

### Prompt Field request: pIC50 | item: CCC(CC)Cn1ccc2cnc(Nc3cnn(CC(=O)O[C@@H]4C[C@@H](C(=O)OC)N(C)C4)c3)nc21
### Response > 7.00
